- Target Or System: MMP-2 (Homo sapiens)
- Sequence (P08253 110-660): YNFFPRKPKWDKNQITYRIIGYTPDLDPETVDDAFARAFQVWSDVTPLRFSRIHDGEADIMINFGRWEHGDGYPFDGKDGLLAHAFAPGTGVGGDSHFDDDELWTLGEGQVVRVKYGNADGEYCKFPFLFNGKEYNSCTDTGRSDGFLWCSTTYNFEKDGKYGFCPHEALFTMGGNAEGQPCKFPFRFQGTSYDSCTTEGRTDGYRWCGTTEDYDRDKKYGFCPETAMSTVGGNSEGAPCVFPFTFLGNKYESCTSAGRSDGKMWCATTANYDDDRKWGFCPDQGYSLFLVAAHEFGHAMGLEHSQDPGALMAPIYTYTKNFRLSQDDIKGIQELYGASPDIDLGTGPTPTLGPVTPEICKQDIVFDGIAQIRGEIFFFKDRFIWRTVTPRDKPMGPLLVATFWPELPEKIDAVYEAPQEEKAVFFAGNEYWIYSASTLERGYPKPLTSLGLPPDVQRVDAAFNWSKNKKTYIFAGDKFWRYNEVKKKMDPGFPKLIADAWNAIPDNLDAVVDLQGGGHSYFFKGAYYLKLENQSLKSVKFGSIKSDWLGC
Parameter: IC50 (µM)
All answers are understood in µM, so give the number only.

O=C(NCCC[C@@H](NS(=O)(=O)c1ccc(OCc2cc(Br)cc(Br)c2)cc1)C(=O)NO)c1cccc(C(=O)NCCC[C@@H](NS(=O)(=O)c2ccc(OCc3cc(Br)cc(Br)c3)cc2)C(=O)NO)c1 :: 3

// next entry
Quickly give me recorded IC50 for NC(=O)NCCC[C@@H](NS(=O)(=O)c1ccc(OCc2cc(Br)cc(Br)c2)cc1)C(=O)NO [JG26, reference compound] 0.24

###

pIC50 values for the compounds below.
- Target Or System: Recombinant human MMP-14 catalytic domain (Homo sapiens, UniProt P50281)
- Construct: Recombinant human MMP-14 catalytic domain was a kind gift of Prof; Gillian Murphy; kind gift of Prof; Gillian Murphy (Department of Oncology, University of Cambridge, UK)
- Protocol Details: MMP-14 fluorometric inhibition assay
- Format: biochemical
- Setup Conditions: mean of three independent experiments in duplicate, read-out: In vitro inhibitory activity IC50 on MMP-14
# pIC50: negative log10 of molar concentration; output just the value

O=C(NCCC[C@@H](NS(=O)(=O)c1ccc(OCc2cc(Br)cc(Br)c2)cc1)C(=O)NO)NCCC[C@@H](NS(=O)(=O)c1ccc(OCc2cc(Br)cc(Br)c2)cc1)C(=O)NO :: 3.63
O=C(CCCNC(=O)c1cccc(C(=O)NCCCC(=O)NCCC[C@@H](NS(=O)(=O)c2ccc(OCc3cc(Br)cc(Br)c3)cc2)C(=O)NO)c1)NCCC[C@@H](NS(=O)(=O)c1ccc(OCc2cc(Br)cc(Br)c2)cc1)C(=O)NO :: 4.24
O=C(NCCC[C@@H](NS(=O)(=O)c1ccc(OCc2cc(Br)cc(Br)c2)cc1)C(=O)NO)c1cccc(C(=O)NCCC[C@@H](NS(=O)(=O)c2ccc(OCc3cc(Br)cc(Br)c3)cc2)C(=O)NO)c1 :: 4.30

Tell me pIC50 reported for NC(=O)NCCC[C@@H](NS(=O)(=O)c1ccc(OCc2cc(Br)cc(Br)c2)cc1)C(=O)NO [JG26, reference compound] 4.71
